The values you see were collected from ChEMBL document CHEMBL1134567.

Experiment: Evaluated for its olfactory detection threshold value and indicates quantitative measure of odour impression
Type: functional
Rule: yes (1) for Log 1/C not less than 5, no (0) for anything less.

Check out these entries, answers already filled in.
compound	assigned_label
COc1ncc(C)nc1C(C)C	yes (1)
COc1ncc(C)nc1CC(C)C	no (0)
CCCCc1cnccn1	no (0)
CC(C)Cc1cncc(N(C)C)n1	no (0)
CCCCCc1cnc(C)c(C)n1	no (0)
CSc1nccnc1CC(C)C	yes (1)
CCCc1nccnc1C	no (0)
CCCCCc1nccnc1OCC	yes (1)
C=CCCCc1nccnc1OC	yes (1)
CCC(C)Cc1cnc(OC)c(C)n1 (configuration not stated)	yes (1)

Q: API: above_or_equal(metric=Log 1/C, cutoff=5) for item CCC(C)c1nccnc1OC (configuration not stated)
A: yes (1)

Q: API: above_or_equal(metric=Log 1/C, cutoff=5) for item COc1nc(C)c(OC)nc1C
A: no (0)

Q: API: above_or_equal(metric=Log 1/C, cutoff=5) for item COc1nccnc1CCCC(C)C
A: yes (1)

Q: API: above_or_equal(metric=Log 1/C, cutoff=5) for item Cc1nccnc1N(C)C
A: no (0)

Q: API: above_or_equal(metric=Log 1/C, cutoff=5) for item COc1nccnc1CCC(C)C
A: yes (1)

Q: API: above_or_equal(metric=Log 1/C, cutoff=5) for item CCOc1ncc(C(C)CC)nc1C (configuration not stated)
A: no (0)

====

Test: Evaluated for its olfactory detection threshold value and indicates quantitative measure of odour impression
Format: functional
Rule: 1.0 for Log 1/C not less than 6, 0.0 for anything less.

molecule	assigned_label
CCCCCc1nccnc1SCC	0.0

Q: API: above_or_equal(metric=Log 1/C, cutoff=6) for item CCCCCCc1nccnc1OC
A: 1.0

Q: API: above_or_equal(metric=Log 1/C, cutoff=6) for item CC(C)Cc1cnccn1
A: 0.0

Q: API: above_or_equal(metric=Log 1/C, cutoff=6) for item CCC(C)CCc1cnc(OC)c(C)n1 (configuration not stated)
A: 0.0

Q: API: above_or_equal(metric=Log 1/C, cutoff=6) for item CCCCCCCc1nccnc1OC
A: 1.0

Q: API: above_or_equal(metric=Log 1/C, cutoff=6) for item Cc1ncc(C(C)C)nc1C
A: 0.0

Q: API: above_or_equal(metric=Log 1/C, cutoff=6) for item COc1nc(C)cnc1C(C)C
A: 1.0

Q: API: above_or_equal(metric=Log 1/C, cutoff=6) for item CCC(C)CCc1cnc(Oc2ccccc2)c(C)n1 (configuration not stated)
A: 0.0

Q: API: above_or_equal(metric=Log 1/C, cutoff=6) for item CCCC(C)Cc1cnc(SC)c(C)n1 (configuration not stated)
A: 0.0

Q: API: above_or_equal(metric=Log 1/C, cutoff=6) for item CC(C)c1cnc(Oc2ccccc2)cn1
A: 0.0

Q: API: above_or_equal(metric=Log 1/C, cutoff=6) for item CCCCc1nccnc1OC
A: 1.0

Q: API: above_or_equal(metric=Log 1/C, cutoff=6) for item CCc1nccnc1CC
A: 0.0

Q: API: above_or_equal(metric=Log 1/C, cutoff=6) for item CCCC(C)Cc1nccnc1OC (configuration not stated)
A: 1.0

Q: API: above_or_equal(metric=Log 1/C, cutoff=6) for item Cc1nccnc1C(C)C
A: 0.0

====

Log 1/C reference
Assay: Evaluated for its olfactory detection threshold value and indicates quantitative measure of odour impression
Assay type: functional
Write no unit; give the number alone.

compound	Log 1/C
Cc1nc(CC(C)C)cnc1Oc1ccccc1	2.88
COc1nc(C(C)C)c(OC)nc1C(C)C	2.52
CCSc1cnc(CCC(C)CC)cn1 (stereo not drawn)	3.63

Below: the item to evaluate.
Q: Note down Log 1/C recorded for COc1nccnc1CC(C)C
A: 7.47

====

Test: Evaluated for its olfactory detection threshold value and indicates quantitative measure of odor impression
Format: functional
Rule: Y for Log 1/C not less than 5, N for anything less.

CCCCCCCCCCc1nccnc1OCC N
CCc1cnc(C)cn1 N
CCCCCCCCCCc1nccnc1OC N
CCCCCCCCc1nccnc1OC Y

Now for another entry.
Q: API: above_or_equal(metric=Log 1/C, cutoff=5) for item CCCCCCCCc1nccnc1SC
A: Y

====

Test: Evaluated for its olfactory detection threshold value and indicates quantitative measure of odour impression
Type: functional
value_type: Log 1/C
Write no unit; give the number alone.

# count of solved cases: 8
CCOc1ncc(CC(C)C)nc1C 4.08
COc1nc(C(C)C)c(OC)nc1C 3.45
CCCc1nccnc1SC 5.23
COc1ncc(CC(C)C)nc1C 6
CCCCCc1cnccn1 4.48
CCCCc1nccnc1SCC 4.69
CSc1ncc(CC(C)C)nc1C 4.12
C/C=C\CCc1nccnc1OC 5.52

Below: the item to evaluate.
Q: Note down Log 1/C recorded for COc1nccnc1C(C)C
A: 6.8

====

Log 1/C reference
Experiment: Evaluated for its olfactory detection threshold value and indicates quantitative measure of odour impression
Format: functional
Write no unit; give the number alone.

# count of solved cases: 2
COc1nc(C)cnc1CC(C)C 5.84
C/C=C/CCc1nccnc1OC 6.1

Below: the item to evaluate.
Q: Note down Log 1/C recorded for CCCc1nccnc1OC
A: 6.1

====

Log 1/C reference
Assay: Evaluated for its olfactory detection threshold value and indicates quantitative measure of odour impression
Type: functional
Write no unit; give the number alone.

# count of solved cases: 2
compound	reported_value
CSc1nccnc1C(C)C	6.55
CCSc1ncc(CC(C)CC)nc1C (centres undefined)	4.95

Below: the item to evaluate.
Q: Note down Log 1/C recorded for COc1nc(C)c(C)nc1CC(C)C
A: 2.79

====

Test: Evaluated for its olfactory detection threshold value and indicates quantitative measure of odour impression
Type: functional
value_type: Log 1/C
Write no unit; give the number alone.

molecule	Log 1/C
CCOc1ncc(CC(C)CC)nc1C (stereo unspecified)	4.54
COc1nc(OC)c(C(C)C)nc1C	2.89
CCCCCc1nccnc1OC	6.95
CCCCCc1nccnc1SC	6.21
CCC(C)Cc1nccnc1OC (stereo unspecified)	7.18

Below: the item to evaluate.
Q: Note down Log 1/C recorded for Cc1nccnc1CC(C)C
A: 3.06
